Listed compounds paired with reported ΔTm
target: Serine/threonine-protein kinase pim-3 (Homo sapiens)
quantity.measured: ΔTm (°C)

>>> result_number("O=C1Cc2c([nH]c3ccc(Br)cc23)-c2ccccc2N1 [KENPAULLONE]")
4.6
>>> result_number("COc1cc(OC)c(/C=C2\\C(=O)Nc3ccccc32)c(OC)c1")
1
>>> result_number("CN(C)c1ccc(CC2C(=O)Nc3ccccc32)cc1 (centres undefined)")
1.2
>>> result_number("O=C1Nc2ccccc2/C1=C\\c1ccc[nH]1")
2.1

====

Target or system Myotonin-protein kinase (Homo sapiens): recorded ΔTm listed per item.
quantity.measured: ΔTm (°C)

>>> result_number("C[C@@H](N)[C@H]1CC[C@H](C(=O)Nc2ccncc2)CC1")
0.3
>>> result_number("Cc1cc(C=C2C(=O)C=CC2=O)cc(C)c1O")
0.3
>>> result_number("COc1cc2ncnc(Nc3cccc(Br)c3)c2cc1OC")
0.3
